# maps each entry to its growth inhibition
test: NCI Yeast Anticancer Drug Screen. Data for the rad50 strain (AID 155);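 further: 0% = growth of vehicle-only cultures of the same strain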; settings: S. cerevisiae rad50 strain growth inhibition; at 50.0 µM; hits give high values
This is part of a sample that, as a whole, favours compounds with a hit. Of some 79,000 tested, about 15% had one in any assay.
quantity.kind: growth inhibition (%)

1) CC1=CCC2(C)C3CCC4(C)C(O)CCC4C3CCC2(C)C1 (stereo not drawn); 70.8
2) Cc1ccccc1NC(=O)CBr; 98.5
3) Oc1cccc[c]1[Hg][Cl]; 99.5
4) O=C(COc1ccc(Cl)c(Cl)c1)N(Cc1ccccc1)Cc1ccc[n+](Cc2ccc(S(=O)(=O)F)cc2)c1; 43.5
5) O=[N+]([O-])c1cccc(N=Cc2ccc(N(CCCl)CCCl)cc2)c1; 66
6) COc1cccc2c1C(=O)c1c(O)c3c(c(O)c1C2=O)C[C@@](O)(C(C)=O)C[C@@H]3OC1CC(N)C(OC2CC(O)C(O)C(C)O2)C(C)O1 (stereo partly drawn); 76.8
7) CCCCCCCCCCCCCCCCCC(=O)[O][Hg][c]1ccccc1; 90.7
8) C/C(=N\N)C(CN1CCCCC1)C(c1ccccc1)c1c(O)c2ccccc2oc1=O (stereo not drawn); 79.8
9) C[C@]12CC[C@H]3[C@@H](C[C@@H](F)C4=CC(=O)CC[C@@]43C)[C@@H]1CC[C@@H]2O; 56.2
10) O/N=C/c1ccc2c(c1)OCO2; -1.6
11) CC1=CC2OC3CC4OC(=O)/C=C/C=C/C(=O)OCCC(C)C(O)C(=O)OCC2(CC1O)C4(C)C31CO1 (stereo not drawn); 92.3
12) NC(Cc1c[nH]c2ccccc12)P(=O)(O)O (stereo not drawn); 38.1
13) Cc1cc(NCc2ccccc2)c2ccccc2[n+]1CCCCCCCCCC[n+]1c(C)cc(NCc2ccccc2)c2ccccc21; 90.8
14) CC(C)CCC[C@@H](C)[C@H]1CC[C@H]2[C@@H]3CC[C@H]4C[C@H](NCCCl)CC[C@]4(C)[C@H]3CC[C@]12C; 52
15) C[CH2][Sn]1([CH2]C)[O]C2C(O)OC(CO)C(O)C2[O]1 (stereo not drawn); 33.5
16) O=C(CCN1CC1)NCCc1ccccc1; 96.6
17) CC1CCC2(NC1)OC1CC3C4CCC5CC(OC6OC(CO)C(OC7OC(CO)C(O)C(OC8OCC(O)C(O)C8O)C7OC7OC(CO)C(O)C(O)C7O)C(O)C6O)CCC5(C)C4CCC3(C)C1C2C (stereo not drawn); 28.9
18) CCC[CH2][Sn]([Cl])([CH2]C)[O][Sn]([Cl])([CH2]C)[CH2]CCC (stereo not drawn); 83.5
19) OCC(O)C(O)CO (stereo not drawn) (tested in a mixture with another compound); 15.4
20) COc1cc(CC(=O)N2CC2)cc(OC)c1OC; 7.85
21) OC1CCCC[CH]1[Hg][Cl] (stereo not drawn); 99.3
22) CC(=O)[CH-]C(C)=O.CC(=O)[CH-]C(C)=O.[CH2-]CCC.[CH2-]CCC.[Sn+4]; 90
23) CC(O)([CH2][Hg][Cl])C(O)[CH2][Hg][Cl] (stereo not drawn); 99.2
24) CC#N.FC(F)(F)C#CC(F)(F)F.FC(F)(F)C#CC(F)(F)F.FC(F)(F)C#CC(F)(F)F.[W]; 99.4
25) Cc1ccc(C#CCN2CCCCC2)cn1; 4.45
26) Oc1ccc([Te]CCNCC[Te]c2ccc(O)cc2)cc1; 40.8
27) COc1cc2c3c(c1)-c1c(ccc(OC)c1OC)CC3N(CCCl)CC2 (stereo not drawn); 87
28) CC12CCC(O)CC1CCC1C2CCC2(C)C(C(=O)CC(O)C(F)(F)F)CCC12 (stereo not drawn); 84.5
29) C[C@]12CC/C(=N\NC(=O)c3ccncc3)C[C@@H]1CC[C@@H]1[C@@H]2CC[C@]2(C)[C@@H](O)CC[C@@H]12; 68.9
30) COc1cccc(C(Cc2ccc(N3C(N)=NC(N)=NC3(C)C)cc2)C(=O)Nc2ccc(S(=O)(=O)F)cc2)c1 (stereo not drawn); 99.5
31) Cc1ccc(P(c2ccc(C)cc2)c2ccc(C)cc2)cc1; 37.7
32) COC1C(O)C(C)OC(OC2C(Oc3cccc4c(O)c5c(=O)oc6ccc(C)c7c(=O)oc(c34)c5c67)OC(C)C(O)C2O)C1O (stereo not drawn); 88
33) Br[C](Br)(Br)[Hg][c]1ccccc1; 87.3
